- Target or system: C-C chemokine receptor type 2 (Homo sapiens, UniProt P41597)
- Sequence (P41597 whole entry, looked up): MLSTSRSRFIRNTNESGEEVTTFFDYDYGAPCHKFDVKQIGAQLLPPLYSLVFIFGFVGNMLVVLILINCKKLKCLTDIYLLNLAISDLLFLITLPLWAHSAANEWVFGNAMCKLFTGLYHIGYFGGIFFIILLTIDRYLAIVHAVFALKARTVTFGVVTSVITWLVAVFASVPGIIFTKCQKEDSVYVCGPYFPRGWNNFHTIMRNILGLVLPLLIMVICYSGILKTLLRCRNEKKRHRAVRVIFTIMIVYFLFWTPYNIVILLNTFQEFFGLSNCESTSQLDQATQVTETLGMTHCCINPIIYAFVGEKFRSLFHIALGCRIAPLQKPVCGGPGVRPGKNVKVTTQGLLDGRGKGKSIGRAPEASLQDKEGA
- Protocol text: Displacement of [125I]-CCL2 from human CCR2 receptor expressed in human U2OS cell membrane at 1 uM relative to control
- Type: cell membranes
Measured property: inhibition (%)

I = Cc1cccc2c1CCC2N[C@@H]1CC[C@@](C(=O)NCc2cc(C(F)(F)F)cc(C(F)(F)F)c2)(C(C)C)C1 (stereo partly specified)
II = CC(C)[C@]1(C(=O)NCc2cc(C(F)(F)F)cc(C(F)(F)F)c2)CC[C@@H](NC2CCCc3c(Br)cccc32)C1 (stereo partly specified)
input: Which numeric inhibition is bigger, that of I or that of II ? # reply format: chosen label
output: II
(II: 48%, I: 26%)

====

- Target or system: C-C chemokine receptor type 2 (Homo sapiens)
- Protocol text: Displacement of [3H]INCB3344 from human CCR2 receptor expressed in human U2OS cell membrane assessed as residence time
Measured property: TIME (h)

1 = CC(C)[C@]1(C(=O)NCc2cc(C(F)(F)F)cc(C(F)(F)F)c2)CC[C@@H](NC2CCSCC2)C1
2 = CC(C)[C@]1(C(=O)NCc2cc(C(F)(F)F)cc(C(F)(F)F)c2)CC[C@@H](NC2CCc3cc(Br)ccc32)C1 (mixture of isomers)
3 = CC(C)[C@]1(C(=O)NCc2cc(C(F)(F)F)cc(C(F)(F)F)c2)CC[C@@H](NC2CCc3cc(Cl)ccc32)C1 (some centres undefined)
input: Hey, can you sort those compounds up there by TIME, smallest first? Your task in answering is to list the labels in the requested order.
output: 1, 3, 2
(1: 0.0717 h, 3: 0.933 h, 2: 1.57 h)

====

- Target or system: C-C chemokine receptor type 2 (Homo sapiens, UniProt P41597)
- Protocol text: Displacement of [3H]INCB3344 from human CCR2 receptor expressed in human U2OS cell membrane assessed as kinetic rate index at Ki by dual-point competition association assay relative to control
Measured property: Ratio

Compound	Ratio
CC(C)[C@]1(C(=O)NCc2cc(C(F)(F)F)cc(C(F)(F)F)c2)CC[C@@H](NC2CCc3c(N)cccc32)C1 (stereo not given in full)	0.8
CC(C)[C@]1(C(=O)NCc2cc(C(F)(F)F)cc(C(F)(F)F)c2)CC[C@@H](NC2CCc3cc4c(cc32)OCO4)C1 (stereo not given in full)	0.6
Cc1ccc2c(c1)C(N[C@@H]1CC[C@@](C(=O)NCc3cc(C(F)(F)F)cc(C(F)(F)F)c3)(C(C)C)C1)CC2 (stereo not given in full)	0.8
CC(C)[C@]1(C(=O)NCc2cc(C(F)(F)F)cc(C(F)(F)F)c2)CC[C@@H](NC2CCCc3ccccc32)C1 (stereo not given in full)	0.6
CC(C)[C@]1(C(=O)NCc2cc(C(F)(F)F)cc(C(F)(F)F)c2)CC[C@@H](NC2CCc3cc(Cl)ccc32)C1 (stereo not given in full)	1.1
COc1cccc2c1CCCC2N[C@@H]1CC[C@@](C(=O)NCc2cc(C(F)(F)F)cc(C(F)(F)F)c2)(C(C)C)C1 (stereo not given in full)	0.7
CC(C)[C@]1(C(=O)NCc2cc(C(F)(F)F)cc(C(F)(F)F)c2)CC[C@@H](NC2CCc3ccccc32)C1 (stereo not given in full)	0.7
CC(C)[C@]1(C(=O)NCc2cc(C(F)(F)F)cc(C(F)(F)F)c2)CC[C@@H](NC2CCc3c(O)cccc32)C1 (stereo not given in full)	0.6
COc1ccc2c(c1)CCC2N[C@@H]1CC[C@@](C(=O)NCc2cc(C(F)(F)F)cc(C(F)(F)F)c2)(C(C)C)C1 (stereo not given in full)	0.6
CC(C)[C@]1(C(=O)NCc2cc(C(F)(F)F)cc(C(F)(F)F)c2)CC[C@@H](NC2CCc3c(C#N)cccc32)C1 (stereo not given in full)	0.8
